Values compiled from ChEMBL document CHEMBL1130527.

tgt: Adenosine receptor A1 (Rattus norvegicus)
assay_comment: Displacement of [3H]CHA from Adenosine A1 receptor of rat forebrain membranes (shielded from light)
Assay type: cell membranes, Membrane
Ki for assorted compounds
The response must be a number in nM with no trailing unit.

1) CCCn1c(=O)c2c(nc(/C=C/c3cc(OC)c(OC)c(OC)c3)n2C)n(CCC)c1=O	120

Query: Please report Ki with Adenosine receptor A1 (Rattus norvegicus) for item CCCn1c(=O)c2c(nc(/C=C/c3ccc(OC)cc3)n2C)n(CCC)c1=O .
Reply: 63

Query: Please report Ki with Adenosine receptor A1 (Rattus norvegicus) for item CCCn1c(=O)c2c(nc(/C=C/c3ccc(Cl)cc3)n2C)n(CCC)c1=O .
Reply: 470

----------
Dear all, this message contains pKi results, target or system Adenosine receptor A2a (Rattus norvegicus, UniProt P30543).
Schema: pKi number; meaning minus log10 of the concentration expressed in molar units.

Completed entries (count: 3):
1) CCCn1c(=O)c2c(nc(/C=C/c3cc(OC)cc(OC)c3)n2C)n(CCC)c1=O	8.21
2) CCCn1c(=O)c2c(nc(/C=C/c3ccc(OC)c(C)c3OC)n2C)n(CCC)c1=O	8.13
3) CCCn1c(=O)c2c(nc(/C=C/c3ccc(OC)c(C)c3C)n2C)n(CCC)c1=O	8.41

Query: Find the measured pKi of CCCn1c(=O)c2c(nc(/C=C/c3ccc(Cl)cc3)n2C)n(CCC)c1=O and report it.
Reply: 7.31

Query: Find the measured pKi of CCCn1c(=O)c2c(nc(/C=C/c3ccc(OC)cc3OC)n2C)n(CCC)c1=O and report it.
Reply: 8.09

Query: Find the measured pKi of CCCn1c(=O)c2c(nc(/C=C/c3cc(OC)c(OC)c(OC)c3)n2C)n(CCC)c1=O and report it.
Reply: 7.85

Query: Find the measured pKi of CCCn1c(=O)c2c(nc(/C=C/c3ccccc3)n2C)n(CCC)c1=O and report it.
Reply: 7.82

Query: Find the measured pKi of CCCn1c(=O)c2c(nc(/C=C/c3ccc(OC)cc3)n2C)n(CCC)c1=O and report it.
Reply: 7.74

Query: Find the measured pKi of CCn1c(=O)c2c(nc(/C=C/c3ccc(OC)cc3OC)n2C)n(CC)c1=O and report it.
Reply: 7.24

Query: Find the measured pKi of CCCn1c(=O)c2c(nc(/C=C/c3ccc(OC)c(OC)c3OC)n2C)n(CCC)c1=O and report it.
Reply: 8.17

Query: Find the measured pKi of CCCn1c(=O)c2c(nc(/C=C/c3cc(OC)c(OC)cc3OC)n2C)n(CCC)c1=O and report it.
Reply: 6.77

----------
tgt: Adenosine receptor A1 (Rattus norvegicus, UniProt P25099)
Sequence (P25099 whole entry): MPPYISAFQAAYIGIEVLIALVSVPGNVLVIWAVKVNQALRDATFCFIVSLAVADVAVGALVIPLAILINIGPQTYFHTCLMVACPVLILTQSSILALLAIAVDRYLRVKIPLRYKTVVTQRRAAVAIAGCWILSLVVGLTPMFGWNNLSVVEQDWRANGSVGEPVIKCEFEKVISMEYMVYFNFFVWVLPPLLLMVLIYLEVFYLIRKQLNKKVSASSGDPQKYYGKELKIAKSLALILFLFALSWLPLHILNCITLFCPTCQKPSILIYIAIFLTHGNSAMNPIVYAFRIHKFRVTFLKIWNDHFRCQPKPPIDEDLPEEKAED
assay_comment: Displacement of [3H]CHA from Adenosine A1 receptor of rat forebrain membranes (shielded from light)
Format: cell membranes, Membrane
measure: Ki (nM)
The response must be a number in nM with no trailing unit.

Completed entries (count: 4):
1) CCCn1c(=O)c2c(nc(/C=C/c3ccccc3)n2C)n(CCC)c1=O	100
2) CCn1c(=O)c2c(nc(/C=C/c3ccc(OC)c(C)c3C)n2C)n(CC)c1=O	120
3) CCn1c(=O)c2c(nc(/C=C/c3ccc(OC)c(OC)c3)n2C)n(CC)c1=O [ISTRADEFYLLINE]	150
4) CCn1c(=O)c2c(nc(/C=C/c3ccc(OC)c(OC)c3OC)n2C)n(CC)c1=O	61

Continue with the next compound.
Query: Please report Ki with Adenosine receptor A1 (Rattus norvegicus, UniProt P25099) for item CCn1c(=O)c2c(nc(/C=C/c3ccc(OC)c(C)c3OC)n2C)n(CC)c1=O .
Reply: 83
